Data provenance: ChEMBL document CHEMBL1909046

A collection of molecules and their measured IC50
target: 5-hydroxytryptamine receptor 2C (Homo sapiens, UniProt P28335); experiment: DRUGMATRIX: Serotonin (5-Hydroxytryptamine) 5-HT2C radioligand binding (ligand: [3H] Mesulergine); assay type: cell membranes, CHO-K1, Membrane; conditions: Not Active = under 50% inhibition at 10 µM; read-out: IC50
Sequence (P28335 whole entry): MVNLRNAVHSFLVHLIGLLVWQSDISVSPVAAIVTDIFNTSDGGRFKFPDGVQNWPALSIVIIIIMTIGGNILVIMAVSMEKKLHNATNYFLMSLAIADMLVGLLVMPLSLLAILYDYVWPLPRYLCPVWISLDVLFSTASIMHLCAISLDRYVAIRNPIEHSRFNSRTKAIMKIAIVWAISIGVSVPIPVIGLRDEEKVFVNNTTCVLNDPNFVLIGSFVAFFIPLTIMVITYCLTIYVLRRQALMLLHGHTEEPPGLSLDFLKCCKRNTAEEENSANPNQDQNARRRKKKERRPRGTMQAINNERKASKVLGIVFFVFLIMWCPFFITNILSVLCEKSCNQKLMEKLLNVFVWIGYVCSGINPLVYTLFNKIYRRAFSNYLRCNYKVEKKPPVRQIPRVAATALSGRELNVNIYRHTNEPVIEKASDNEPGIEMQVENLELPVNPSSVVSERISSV
Output spec: scalar in nM, unitless text.

CN1CCN(C(c2ccccc2)c2ccccc2)CC1 [CYCLIZINE] | 1020

query: Hello, I am looking for reported IC50 with 5-hydroxytryptamine receptor 2C (Homo sapiens, UniProt P28335) for CN(C)CCC=C1c2ccccc2CCc2ccccc21 [AMITRIPTYLINE] . Could you help?
result: 6.05

query: What do you have for CN1CCCC(CN2c3ccccc3Sc3ccccc32)C1 (stereo not drawn) [MEPAZINE] ?
result: 495
